target: 5-lipoxygenase (Rattus norvegicus, UniProt P12527); construct: cell-free 5-lipoxygenase enzyme obtained from rat basophilic leukemia (RBL-1) cells; endogenous in cells; assay: In Vitro 5-Lipoxygenase Assay (5-HETE); details: RBL-1 cell-free supernatant, 10 μM arachidonic acid, 37° C.
Sequence (P12527 whole entry): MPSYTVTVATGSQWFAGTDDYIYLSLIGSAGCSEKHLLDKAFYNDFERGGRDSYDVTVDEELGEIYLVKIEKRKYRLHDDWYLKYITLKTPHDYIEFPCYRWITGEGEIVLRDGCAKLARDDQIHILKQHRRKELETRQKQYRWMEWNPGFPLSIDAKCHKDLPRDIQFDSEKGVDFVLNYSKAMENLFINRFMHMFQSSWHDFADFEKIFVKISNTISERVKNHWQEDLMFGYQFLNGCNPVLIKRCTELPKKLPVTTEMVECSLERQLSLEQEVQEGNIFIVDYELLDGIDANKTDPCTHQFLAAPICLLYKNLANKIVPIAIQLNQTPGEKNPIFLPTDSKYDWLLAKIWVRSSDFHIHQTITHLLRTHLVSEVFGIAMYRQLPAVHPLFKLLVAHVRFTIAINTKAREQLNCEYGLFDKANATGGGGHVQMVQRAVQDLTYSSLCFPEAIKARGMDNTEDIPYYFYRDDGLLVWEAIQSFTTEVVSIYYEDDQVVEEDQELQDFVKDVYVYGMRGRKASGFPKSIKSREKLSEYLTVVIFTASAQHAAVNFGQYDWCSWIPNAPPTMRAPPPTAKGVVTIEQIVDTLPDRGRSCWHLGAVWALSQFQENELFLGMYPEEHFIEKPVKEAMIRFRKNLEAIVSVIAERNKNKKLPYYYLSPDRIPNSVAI
# if measured IC50 < 200 nM: Criterion met  # else: Criterion not met

[[record]]
structure_string = "CN(O)CCc1ccc2c(c1)C(=O)c1ccccc1CO2"
system_tested = "5-lipoxygenase (Rattus norvegicus, UniProt P12527)"
assigned_class = "Criterion not met"

[[record]]
structure_string = "CN(O)C(=O)CCc1ccc2c(c1)C(=O)c1ccccc1CO2"
system_tested = "5-lipoxygenase (Rattus norvegicus, UniProt P12527)"
assigned_class = "Criterion met"

[[record]]
structure_string = "O=C1c2ccccc2COc2ccc(CC(=O)N(O)C3CCCCC3)cc21"
system_tested = "5-lipoxygenase (Rattus norvegicus, UniProt P12527)"
assigned_class = "Criterion not met"

[[record]]
structure_string = "CN(O)C(=O)CCc1ccc2c(c1)Cc1ccccc1CO2"
system_tested = "5-lipoxygenase (Rattus norvegicus, UniProt P12527)"
assigned_class = "Criterion met"

[[record]]
structure_string = "CCN(O)CCc1ccc2c(c1)Cc1ccccc1CO2"
system_tested = "5-lipoxygenase (Rattus norvegicus, UniProt P12527)"
assigned_class = "Criterion not met"

